Here, each record is paired with measured pIC50 data.
- measurement target: Phospholipase A2, membrane associated (Homo sapiens, UniProt P14555)
- Sequence (P14555 whole entry): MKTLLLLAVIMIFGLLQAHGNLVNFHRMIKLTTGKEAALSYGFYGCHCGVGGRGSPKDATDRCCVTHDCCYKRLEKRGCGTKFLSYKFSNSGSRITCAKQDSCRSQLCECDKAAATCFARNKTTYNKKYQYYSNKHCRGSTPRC
- assay protocol: Inhibition of human recombinant PLA2 by fluorometric assay
Note on pIC50: it is the negative log10 of concentration, concentration in mol/L.

CCCCCCCCCCCCCCCCCCN1CCN(C(=O)c2ccc(-c3noc(=O)[nH]3)cc2)CC1 ... 5.96
CCCCCCCCCCCCCCCCCCCCN1CCN(C(=O)c2ccc(Cc3noc(=O)[nH]3)cc2)CC1 ... 7.00
CCCCCCCCCCCCCCCCN1CCN(Cc2ccc(Cc3noc(=O)[nH]3)cc2)CC1 ... 5.00
CCCCCCCCCCCCCCCCCCN1CCN(Cc2ccc(Cc3nc(=O)o[nH]3)cc2)CC1 ... 5.66
CCCCCCCCCCCCCCN1CCN(C(=O)c2ccc(CCCc3noc(=O)[nH]3)cc2)CC1 ... 5.28

For the next question, use this molecule.
-- ask Please give the measured pIC50 for this molecule: CCCCCCCCCCCCCCCCCCN1CCN(Cc2ccc(-c3noc(=O)[nH]3)cc2)CC1
-- reply 5.29
